details: in acetone, 313.15 K

| item.smiles | solubility (mole fraction) |
| --- | --- |
| CC(C)[C@H](NC(=O)OCC1c2ccccc2-c2ccccc21)C(=O)O | 0.0915 |

---

conditions: in dimethyl carbonate, 313.15 K

| item.smiles | solubility (mole fraction) |
| --- | --- |
| CC(C)[C@H](NC(=O)OCC1c2ccccc2-c2ccccc21)C(=O)O | 0.0196 |

---

details: in n-propanol, 313.15 K

| item.smiles | solubility (mole fraction) |
| --- | --- |
| CC(C)[C@H](NC(=O)OCC1c2ccccc2-c2ccccc21)C(=O)O | 0.0481 |

---

conditions: in n-butanol, 323.15 K
endpoint: solubility (mole fraction)

| item.smiles | measurement |
| --- | --- |
| CC(C)[C@H](NC(=O)OCC1c2ccccc2-c2ccccc21)C(=O)O | 0.0728 |

---

conditions: in isobutanol, 308.15 K

| item.smiles | solubility (mole fraction) |
| --- | --- |
| CC(C)[C@H](NC(=O)OCC1c2ccccc2-c2ccccc21)C(=O)O | 0.0236 |

---

conditions: in dimethyl carbonate, 323.15 K
endpoint: solubility (mole fraction)

| item.smiles | measurement |
| --- | --- |
| CC(C)[C@H](NC(=O)OCC1c2ccccc2-c2ccccc21)C(=O)O | 0.0294 |

---

details: in acetone, 308.15 K

| item.smiles | solubility (mole fraction) |
| --- | --- |
| CC(C)[C@H](NC(=O)OCC1c2ccccc2-c2ccccc21)C(=O)O | 0.0792 |

---

conditions: in sec-butanol, 293.15 K

| item.smiles | solubility (mole fraction) |
| --- | --- |
| CC(C)[C@H](NC(=O)OCC1c2ccccc2-c2ccccc21)C(=O)O | 0.0222 |

---

conditions: in acetone, 303.15 K

| item.smiles | solubility (mole fraction) |
| --- | --- |
| CC(C)[C@H](NC(=O)OCC1c2ccccc2-c2ccccc21)C(=O)O | 0.0707 |

---

settings: in ethanol, 323.15 K

| item.smiles | solubility (mole fraction) |
| --- | --- |
| CC(C)[C@H](NC(=O)OCC1c2ccccc2-c2ccccc21)C(=O)O | 0.0877 |

---

conditions: in acetonitrile, 313.15 K

| item.smiles | solubility (mole fraction) |
| --- | --- |
| CC(C)[C@H](NC(=O)OCC1c2ccccc2-c2ccccc21)C(=O)O | 0.00867 |

---

conditions: in acetone, 288.15 K

| item.smiles | solubility (mole fraction) |
| --- | --- |
| CC(C)[C@H](NC(=O)OCC1c2ccccc2-c2ccccc21)C(=O)O | 0.0504 |

---

details: in n-pentanol, 283.15 K
endpoint: solubility (mole fraction)

| item.smiles | measurement |
| --- | --- |
| CC(C)[C@H](NC(=O)OCC1c2ccccc2-c2ccccc21)C(=O)O | 0.016 |

---

conditions: in n-butanol, 293.15 K

| item.smiles | solubility (mole fraction) |
| --- | --- |
| CC(C)[C@H](NC(=O)OCC1c2ccccc2-c2ccccc21)C(=O)O | 0.0216 |

---

settings: in 2-butanone, 293.15 K

| item.smiles | solubility (mole fraction) |
| --- | --- |
| CC(C)[C@H](NC(=O)OCC1c2ccccc2-c2ccccc21)C(=O)O | 0.0509 |

This collection of values is drawn from BigSolDB 2.1.
